Molecular target: Alpha-1D adrenergic receptor (Homo sapiens, UniProt P25100); further: in other assays of this panel Not Active means under 50% inhibition at 10 µM
Sequence (P25100 whole entry): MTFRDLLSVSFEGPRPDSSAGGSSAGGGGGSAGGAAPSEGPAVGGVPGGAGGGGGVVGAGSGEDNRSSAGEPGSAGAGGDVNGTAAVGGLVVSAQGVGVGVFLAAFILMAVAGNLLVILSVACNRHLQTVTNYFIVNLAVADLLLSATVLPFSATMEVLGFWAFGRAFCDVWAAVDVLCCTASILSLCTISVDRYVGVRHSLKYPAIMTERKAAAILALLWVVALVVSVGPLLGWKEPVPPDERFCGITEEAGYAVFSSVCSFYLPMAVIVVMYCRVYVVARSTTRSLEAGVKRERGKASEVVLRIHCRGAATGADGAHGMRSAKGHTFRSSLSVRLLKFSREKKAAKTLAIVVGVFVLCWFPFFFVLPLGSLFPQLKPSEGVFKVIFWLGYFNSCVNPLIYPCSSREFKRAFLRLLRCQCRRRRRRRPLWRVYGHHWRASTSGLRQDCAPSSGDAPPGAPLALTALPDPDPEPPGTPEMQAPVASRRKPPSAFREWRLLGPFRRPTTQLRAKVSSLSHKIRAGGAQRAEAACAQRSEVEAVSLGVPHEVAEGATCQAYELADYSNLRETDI
Format: cell membranes, HEK293, Membrane
Details: hek293
test.readout: IC50

Use these answered entries as a reference point.
| compound | IC50 |
| --- | --- |
| CN1CCC[C@H]1c1cccnc1 | Not Active |
| NCC[C@H](O)C(=O)N[C@@H]1C[C@H](N)[C@@H](O[C@H]2O[C@H](CN)[C@@H](O)[C@H](O)[C@H]2O)[C@H](O)[C@H]1O[C@H]1O[C@H](CO)[C@@H](O)[C@H](N)[C@H]1O | Not Active |
| N=C(N)NCCCCNC(=N)N.O=S(=O)(O)O [ARCAINE SULFATE] | Not Active |
| CN1C(C(=O)Nc2ccccn2)=C(O)c2ccccc2S1(=O)=O | Not Active |
| CC1=Nc2ccc(Cl)cc2S(=O)(=O)N1 [DIAZOXIDE] | Not Active |
| CC(C)[C@H](N)C(=O)OCCOCn1cnc2c(=O)nc(N)[nH]c21 | Not Active |
| COC(=O)c1ccc(O)cc1 | Not Active |
| C[C@]12CCC(=O)C=C1CC[C@@H]1[C@@H]2C(=O)C[C@@]2(C)[C@H]1CC[C@]2(O)C(=O)CO | Not Active |

Request: Return IC50 (reported value) for this compound: CCOC(=O)c1ccc(N)cc1
Response: Not Active

Request: Return IC50 (reported value) for this compound: O=[N+]([O-])c1cc([As](=O)(O)O)ccc1O
Response: Not Active

Request: Return IC50 (reported value) for this compound: Oc1c(Cl)cc(Cl)cc1Sc1cc(Cl)cc(Cl)c1O
Response: Not Active

Request: Return IC50 (reported value) for this compound: COc1cccc(C2(O)CCCCC2CN(C)C)c1 (centres undefined)
Response: Not Active

Request: Return IC50 (reported value) for this compound: O=C1OC2(c3ccc(O)cc3Oc3cc(O)ccc32)c2ccccc21
Response: Not Active

Request: Return IC50 (reported value) for this compound: CCOC(=O)OC(C)OC1=C(C(=O)Nc2ccccn2)N(C)S(=O)(=O)c2ccccc21 (centres undefined)
Response: Not Active

Request: Return IC50 (reported value) for this compound: CCCCOC(=O)c1ccc(N)cc1
Response: Not Active

Request: Return IC50 (reported value) for this compound: CN1[C@@H]2CC[C@H]1C[C@@H](OC(=O)c1c[nH]c3ccccc13)C2
Response: Not Active

Request: Return IC50 (reported value) for this compound: OCc1ccccc1
Response: Not Active

Request: Return IC50 (reported value) for this compound: Cc1ncc([N+](=O)[O-])n1CC(C)O (centres undefined)
Response: Not Active

Request: Return IC50 (reported value) for this compound: Nc1ccc(S(=O)(=O)Nc2ccnn2-c2ccccc2)cc1
Response: Not Active
